test: Microsomal stability assay, human liver microsomes; type: in vitro ADME; details: Example 11; 60 min
Value Type: Microsomal Stability (human) % rem. 60 min

Here's what some known entries look like.
In [3]: df
Out[3]:
                                   compound                    result
0  CC(c1cnc([N+](=O)[O-])n1C)N(c1cnc2cc(N3CCOCC3)nc(OC3CCC(Nc4ncc(C#N)cn4)CC3)c2c1)S(C)(=O)=O (centres unmarked)   E (% remaining = 0-25%)
1  CC(c1cnc([N+](=O)[O-])n1C)N(c1cnc2cc(N3CCOCC3)nc(OC3CCC(Nc4ncc(C(F)(F)F)cn4)CC3)c2c1)S(C)(=O)=O (centres unmarked)   E (% remaining = 0-25%)
2  CC(c1cnc([N+](=O)[O-])n1C)N(c1cnc2cc(N3CCOCC3)nc(OC3CCC(Nc4ncccn4)CC3)c2c1)S(C)(=O)=O (centres unmarked)   E (% remaining = 0-25%)
3  Cn1c(CN(c2cnc3cc(N4CCOCC4)nc(OC4CCC(Nc5ncc(C#N)cn5)CC4)c3c2)S(C)(=O)=O)cnc1[N+](=O)[O-] (centres unmarked)   E (% remaining = 0-25%)
4  O=C(N[C@H]1CC[C@@H](Oc2nc(N3CCOCC3)cc3ncc(O)cc23)CC1)c1ncccn1  G (% remaining = 50-75%)

Problem: # Microsomal Stability (human) % rem. 60 min lookup, item CS(=O)(=O)Nc1cnc2cc(N3CCOCC3)nc(O[C@H]3CC[C@@H](Nc4ncccn4)CC3)c2c1
Solution: G (% remaining = 50-75%)

====

experiment: Pharmacokinetic study in dogs (IV, PO); format: in vivo, Beagle dogs; settings: male, Beagle; Table C; Dog Plasma; PO; 10 mg/kg; read-out: AUCINF—obs
Value Type: AUC(0-inf) (ng·h/mL)
Your answer is read as ng·h/mL, so omit the unit and give the number.

Problem: Item O=C(N[C@H]1CC[C@@H](Oc2nc(N3CCOCC3)cc3ncccc23)CC1)c1ncccn1 [Compound 123] has what recorded AUC(0-inf)?
Solution: 17800

====

molecular target: pDNA-PK ser2056 induction in HCT116 spheroids (Homo sapiens, UniProt P78527); construct: endogenous in cells; host or cells: HCT116 multicellular tumour spheroids; assay: Multicellular tumour spheroid + radiation, pDNA-PK inhibition, HCT116; type: cell-based; conditions: Example 9 Study 2; 20 Gy; 20% O2; read-out: Spheroid Cell line: HCT116 Immunohistochemical endpoint pDNA-PK inhibition EC50
EC50 for assorted compounds

Worked examples, 3 compounds total:
                                   compound                                    system            result
0  c1cnc2cc(N3CCOCC3)nc(O[C@H]3CC[C@@H](Nc4ncnc5occc45)CC3)c2c1 [Compound 82]  pDNA-PK ser2056 induction in HCT116 spheroids (Homo sapiens, UniProt P78527)      10 to 500 nM
1  Cc1ccnc(C(=O)N[C@H]2CC[C@@H](Oc3nc(N4CCOCC4)cc4ncccc34)CC2)n1 [Compound 127]  pDNA-PK ser2056 induction in HCT116 spheroids (Homo sapiens, UniProt P78527)  1000 to 10000 nM
2  c1cnc2cc(N3CCOCC3)nc(O[C@H]3CC[C@@H](Nc4ncc5[nH]ccc5n4)CC3)c2c1 [Compound 85]  pDNA-PK ser2056 induction in HCT116 spheroids (Homo sapiens, UniProt P78527)      10 to 500 nM

Problem: Record request: EC50 value, item FC(F)(F)c1cncn1[C@H]1CC[C@@H](Oc2nc(N3CCOCC3)cc3ncccc23)CC1 [Compound 17j]
Solution: 500 to 1000 nM

Problem: // query EC50 value for entry COc1ccc(C(=O)N[C@H]2CC[C@@H](Oc3nc(N4CCOCC4)cc4ncccc34)CC2)cc1 [Compound 112]
Solution: 10 to 500 nM

Problem: Dear colleague, I am looking for the recorded EC50 of the following compound: Cn1ccc2nc(N[C@H]3CC[C@@H](Oc4nc(N5CCOCC5)cc5ncccc45)CC3)ncc21 [Compound 87]
Solution: 10 to 500 nM

Problem: Any idea what EC50 was measured for COc1cnc(N[C@H]2CC[C@@H](Oc3nc(N4CCOCC4)cc4ncc(NS(C)(=O)=O)cc34)CC2)nc1 [Compound 203] ?
Solution: 10 to 500 nM

Problem: // EC50 lookup, key: O=C(N[C@H]1CC[C@@H](Oc2nc(N3CCOCC3)cc3ncccc23)CC1)c1cncnc1 [Compound 122]
Solution: 1000 to 10000 nM

Problem: # get_value(readout='EC50', item= Cc1cc2ncnn2cc1N[C@H]1CC[C@@H](Oc2nc(N3CCOCC3)cc3ncccc23)CC1 [Compound 91] )
Solution: 10000 to 100000 nM

Problem: What value of measured EC50 is listed for O=C(N[C@H]1CC[C@@H](Oc2nc(N3CCOCC3)cc3ncccc23)CC1)c1ncccn1 [Compound 123] ?
Solution: 500 to 1000 nM

Problem: Report EC50 for Cc1ccnc(N[C@H]2CC[C@@H](Oc3nc(N4CCOCC4)cc4ncccc34)CC2)n1 [Compound 48] please.
Solution: 500 to 1000 nM
